Please respond with reported inhibition at 13 µM for every item in the list.
target.of.assay: CYP2D6 (Homo sapiens, UniProt P10635)
Sequence (P10635 whole entry): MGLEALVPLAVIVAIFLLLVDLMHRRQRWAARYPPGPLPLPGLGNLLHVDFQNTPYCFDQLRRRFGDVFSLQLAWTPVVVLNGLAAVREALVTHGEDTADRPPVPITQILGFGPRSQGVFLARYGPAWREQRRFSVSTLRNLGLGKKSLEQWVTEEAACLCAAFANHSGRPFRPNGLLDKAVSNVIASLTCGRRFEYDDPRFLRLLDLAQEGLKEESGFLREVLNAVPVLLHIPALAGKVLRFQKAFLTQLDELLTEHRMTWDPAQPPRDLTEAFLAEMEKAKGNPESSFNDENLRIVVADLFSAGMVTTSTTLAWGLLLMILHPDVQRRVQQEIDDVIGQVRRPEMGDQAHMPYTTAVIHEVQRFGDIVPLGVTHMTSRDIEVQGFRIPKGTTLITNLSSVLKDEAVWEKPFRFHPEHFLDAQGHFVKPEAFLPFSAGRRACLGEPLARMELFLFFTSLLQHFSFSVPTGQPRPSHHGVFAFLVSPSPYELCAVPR
measurement.description: Inhibition of CYP2D6 at 13 uM
Format: ADME

Request: Identify measured inhibition at 13 µM obtained with CYP2D6 (Homo sapiens, UniProt P10635) for CN(C)CCC1CCN(c2cc(C(=O)NC[C@H]3CC[C@H](CNC(=O)OC(C)(C)C)CC3)c3ccccc3n2)CC1 .
Response: < 50%

Request: State recorded inhibition at 13 µM with CYP2D6 (Homo sapiens, UniProt P10635), entry CN(C)CCN1CCN(c2cc(C(=O)NC[C@H]3CC[C@H](CNC(=O)OC(C)(C)C)CC3)c3ccccc3n2)CC1 , no comment.
Response: < 50%

###

measurement.description: Volume of distribution in C57BL/6 mouse at 5 umol/kg, iv and 10 umol/kg, po
Format: ADME, organism-based
experimental.context: in vivo
observation.type: Vd (L/kg)
Report the figure in L/kg without appending any unit label.

Request: Please report the measured Vd for CC(C)(C)OC(=O)NC[C@H]1CC[C@H](CNC(=O)c2cc(N3CCC(CCN4CC(O)C4)CC3)nc3ccccc23)CC1
Response: 3.6

###

measurement.description: Oral bioavailability in C57BL/6 mouse at 33 umol/kg
Type: ADME, organism-based
experimental.context: in vivo
observation.type: bioavailability (%)
Record the value in %, omitting the unit from your answer.

Request: Give reported bioavailability value for CN(C)CCC1CCN(c2cc(C(=O)NC[C@H]3CC[C@H](CNC(=O)OCC(C)(C)C)CC3)c3ccccc3n2)CC1
Response: 115

###

measurement.description: Clearance in C57BL/6 mouse at 33 umol/kg, iv and po
Assay type: ADME, organism-based
experimental.context: in vivo
observation.type: clearance
In your response, the unit should come after the numeric value.

Request: Return clearance for the following compound: CN(C)CCC1CCN(c2cc(C(=O)NC[C@H]3CC[C@H](CNC(=O)OCC(C)(C)C)CC3)c3ccccc3n2)CC1
Response: 3.12 L/h/kg

###

measurement.description: Fraction unbound in rat plasma at 10 uM after 18 hrs by equilibrium dialysis method
Assay type: ADME, cell-free
observation.type: fraction unbound at 18 h, 10 µM
Please give only the number in your answer, with no unit.

Request: Return fraction unbound at 18 h, 10 µM for the following compound: CC(C)(C)OC(=O)NC[C@H]1CC[C@H](CNC(=O)c2cc(-c3ccccc3)nc3ccccc23)CC1
Response: 0.005

###

measurement.description: Clearance in C57BL/6 mouse at 5 umol/kg, iv and 10 umol/kg, po
Type: ADME, organism-based
experimental.context: in vivo
observation.type: clearance (mL/min/kg)
Note: unit mL/min/kg is implicit; provide only the numeric part.

Request: State its clearance: CC(C)(C)OC(=O)NC[C@H]1CC[C@H](CNC(=O)c2cc(N3CCC(CCN4CC(O)C4)CC3)nc3ccccc23)CC1
Response: 33

###

measurement.description: Volume of distribution in C57BL/6 mouse at 33 umol/kg, iv and po
Type: ADME, organism-based
experimental.context: in vivo
observation.type: Vd (L/kg)
// return numeric value only (unit: L/kg, not printed)

Request: // Input: CN(C)CCC1CCN(c2cc(C(=O)NC[C@H]3CC[C@H](CNC(=O)OCC(C)(C)C)CC3)c3ccccc3n2)CC1 . Output its Vd only.
Response: 9.6

###

target.of.assay: UniProt:Q13085
measurement.description: Inhibition of human recombinant his-tagged ACC1 expressed in baculovirus/Sf9 cell assessed as inorganic phosphate formation […] measured after 1.5 hrs by Malachite green reagent method
observation.type: log10 IC50 (log10 of the value in µM)
Annotation: log10 of IC50, µM basis.

Request: Using the record for CN(C)CCC1CCN(c2cc(C(=O)NC[C@H]3CC[C@H](CNC(=O)OCC(C)(C)C)CC3)c3ccccc3n2)CC1 , state its measured log10 IC50.
Response: 0.00

Request: Provide only the value of recorded log10 IC50 for CN(C)CCC1CCN(c2cc(C(=O)NC[C@H]3CC[C@H](COC(=O)NC(C)(C)C)CC3)c3ccccc3n2)CC1
Response: 1.00

Request: Please supply the value of reported log10 IC50 for the item CC(C)(C)OC(=O)NC[C@H]1CC[C@H](CNC(=O)c2cc(N3CCC(CCN4CC(O)C4)CC3)nc3ccccc23)CC1
Response: 0.00

Request: Give me measured log10 IC50, please, for this compound: CC(C)(C)OC(=O)NC[C@H]1CC[C@H](CNC(=O)c2cc(-c3cn[nH]c3)nc3ccccc23)CC1
Response: 0.36

Request: Give log10 IC50 for the following compound: CC(C)(C)OC(=O)NC[C@H]1CC[C@H](CNC(=O)c2cc(N3CCC(CN)CC3)nc3ccccc23)CC1
Response: 0.63

Request: Respond only with log10 IC50 recorded for CC(C)(C)OC(=O)NC[C@H]1CC[C@H](CNC(=O)c2cc(-c3cccc(CN)c3)nc3ccccc23)CC1
Response: -0.62

Request: Identify measured log10 IC50 associated with CC(C)(C)OC(=O)NC[C@H]1CC[C@H](CNC(=O)c2cc(N3CCC(CCN)CC3)nc3ccccc23)CC1
Response: -0.11

Request: Note log10 IC50 for the compound shown: CCOC(=O)NC[C@H]1CC[C@H](CNC(=O)c2cc(N3CCC(CCN(C)C)CC3)nc3ccccc23)CC1
Response: 0.90

Request: Supply log10 IC50 value. Item: CC(C)(C)OC(=O)NC[C@H]1CC[C@H](CNC(=O)c2cc(N3CCC(CCO)CC3)nc3ccccc23)CC1
Response: 0.36

Request: Provide only the value of recorded log10 IC50 for CC(C)(C)OC(=O)NC[C@H]1CC[C@H](CNC(=O)c2cc(-c3ccc(CN)cc3)nc3ccccc23)CC1
Response: 0.23

Request: Query log10 IC50 for CN(C)CCn1cc(-c2cc(C(=O)NC[C@H]3CC[C@H](CNC(=O)OC(C)(C)C)CC3)c3ccccc3n2)cn1
Response: 0.11

Request: For the compound CC(C)(C)OC(=O)NC[C@H]1CC[C@H](CNC(=O)c2cc(-c3ccncc3)nc3ccccc23)CC1 , give its measured log10 IC50 value.
Response: 0.04

Request: // fetch log10 IC50 given entry CC(C)(C)OC(=O)NC[C@H]1CC[C@H](CNC(=O)c2cc(-c3ccc(C(=O)O)cc3)nc3ccccc23)CC1
Response: 0.46

Request: Give the measured log10 IC50 for CC(C)(C)OC(=O)NC[C@H]1CC[C@H](CNC(=O)c2cc(N3CCNCC3)nc3ccccc23)CC1
Response: 1.11

Request: Hello, please tell me recorded log10 IC50 for this one: CN(C)CCN1CCN(c2cc(C(=O)NC[C@H]3CC[C@H](CNC(=O)OC(C)(C)C)CC3)c3ccccc3n2)CC1
Response: 0.72

Request: Give a short answer stating reported log10 IC50 for CN(C)CCC1CCN(c2cc(C(=O)NC[C@H]3CC[C@H](CNC(=O)OC(C)(C)C)CC3)c3ccccc3n2)CC1 .
Response: 0.08

###

measurement.description: Fraction unbound in human plasma at 10 uM after 18 hrs by equilibrium dialysis method
Assay type: ADME, cell-free
Field: fraction unbound at 18 h, 10 µM. Provide a value for each of the compounds that follow.
Give only the figure.

Request: Provide only the value of recorded fraction unbound at 18 h, 10 µM for CN(C)CCC1CCN(c2cc(C(=O)NC[C@H]3CC[C@H](CNC(=O)OC(C)(C)C)CC3)c3ccccc3n2)CC1
Response: 0.034

Request: Specify measured fraction unbound at 18 h, 10 µM for CC(C)(C)OC(=O)NC[C@H]1CC[C@H](CNC(=O)c2cc(N3CCC(CCN4CC(O)C4)CC3)nc3ccccc23)CC1 .
Response: 0.033

Request: Supply reported fraction unbound at 18 h, 10 µM belonging to this compound: CC(C)(C)OC(=O)NC[C@H]1CC[C@H](CNC(=O)c2cc(-c3ccccc3)nc3ccccc23)CC1
Response: 0.001

###

Target protein (sequence): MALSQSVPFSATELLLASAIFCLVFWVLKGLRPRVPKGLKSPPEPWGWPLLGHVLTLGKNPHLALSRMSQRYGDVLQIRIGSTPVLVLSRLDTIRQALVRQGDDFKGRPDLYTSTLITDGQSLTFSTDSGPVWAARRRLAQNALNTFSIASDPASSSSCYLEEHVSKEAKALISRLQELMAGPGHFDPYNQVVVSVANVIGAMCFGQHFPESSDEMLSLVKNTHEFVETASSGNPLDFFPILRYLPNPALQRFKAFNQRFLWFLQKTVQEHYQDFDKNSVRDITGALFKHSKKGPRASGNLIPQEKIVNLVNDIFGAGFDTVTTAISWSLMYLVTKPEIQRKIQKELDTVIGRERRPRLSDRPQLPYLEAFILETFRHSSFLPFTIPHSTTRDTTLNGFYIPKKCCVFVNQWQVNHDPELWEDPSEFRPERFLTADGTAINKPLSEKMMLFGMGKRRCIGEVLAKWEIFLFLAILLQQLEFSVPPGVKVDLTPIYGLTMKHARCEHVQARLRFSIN
observation.type: pIC50
API: returns pIC50 as number; meaning -log10 of concentration in mol/L.

Request: Give a short answer stating reported pIC50 for CC(C)(C)OC(=O)NC[C@H]1CC[C@H](CNC(=O)c2cc(-c3cccc(CN)c3)nc3ccccc23)CC1 .
Response: 5.40
